Tested on: Candida albicans
Run Description: Minimum inhibitory concentration (MIC) according to DIN 58940 and Kull Synergy Index
Type: cell-based
Test Context: Candida albicans; DIN 58940
Measure Name: MIC (µg/mL)
Response body: numeric value in µg/mL, unit text excluded.

*Q* // lookup MIC for CCCCCCC(O)CO (stereo not shown)
*A* 5000

*Q* // lookup MIC for CCCCC(O)CO (stereo not shown)
*A* 20000

*Q* // lookup MIC for CC(=O)c1ccc(O)cc1 [4HAP, 4-hydroxyacetophenone]
*A* 6000

*Q* // lookup MIC for "OCCCc1ccccc1"
*A* 5000

* * *

For each entry below, report its MIC values Aspergillus brasiliensis value.
Tested on: Aspergillus brasiliensis
Run Description: Minimum inhibitory concentration (MIC) according to DIN 58940 and Kull Synergy Index
Type: cell-based
Test Context: DIN 58940
Response body: numeric value in ppm, unit text excluded.

*Q* Checklist item: MIC values Aspergillus brasiliensis tested on Aspergillus brasiliensis, entry CCCCCCCOCC(O)CO (centres unmarked) , value?
*A* 1000

*Q* Checklist item: MIC values Aspergillus brasiliensis tested on Aspergillus brasiliensis, entry CCCCCCCCOCC(O)CO (centres unmarked) , value?
*A* 500

*Q* Checklist item: MIC values Aspergillus brasiliensis tested on Aspergillus brasiliensis, entry "CCCCCCOC[C@@H](O)CO" , value?
*A* 4000

*Q* Checklist item: MIC values Aspergillus brasiliensis tested on Aspergillus brasiliensis, entry "OCCCO" , value?
*A* 150000

*Q* Checklist item: MIC values Aspergillus brasiliensis tested on Aspergillus brasiliensis, entry OCC(O)COCc1ccccc1 (centres unmarked) , value?
*A* 20000

Data provenance: patent US10638755B2
